- TGT: CD63 on cells (human) (UniProt P08962)
- Sequence (P08962 2-238): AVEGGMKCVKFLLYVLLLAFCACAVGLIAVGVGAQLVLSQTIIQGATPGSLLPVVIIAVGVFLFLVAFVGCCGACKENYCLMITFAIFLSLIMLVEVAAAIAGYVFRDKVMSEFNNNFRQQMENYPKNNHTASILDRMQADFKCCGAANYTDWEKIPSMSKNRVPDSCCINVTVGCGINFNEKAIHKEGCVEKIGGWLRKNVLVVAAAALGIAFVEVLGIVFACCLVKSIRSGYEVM
- EXPERIMENT_DESCRIPTION: cell-based or functional assay
Reported IC50 of cytotoxicity, Colo205 cells (CellTiter-GLO, 4 days) values for a set of binders
Give the value, in units of µg/mL, as a plain number.

bsHER2xCD63-Duo3 with CD63 variant Y127 (bispecific antibody, part only; not given: HER2 arm (IgG1-153) VH and VL, V domains shown, part only) VH: EVQLQQSGPELVKPGASVKMSCKASGYTFTSYVMHWVRQTPGQGLEWIGYITPYNDGTKYNEKFKGKATLTSDKSSSTAYMELSSLTSEDSAVYYCVGGDNYYYAMDHWGQGTSVTVSAA VL: NIMVTQSPSSLAVSAGEKVTMSCKSSQSVLYSSNQKNYLAWYQQKPGQSPKLLIYWASTRVSGVPDRFTGSGSGTDFTLTISRVQAEDLAVYYCHQYFSSFTFGSGTKLEIKRT; 0.472
bsHER2xCD63-Duo3 with CD63 variant Y79H (bispecific antibody, part only; not given: HER2 arm (IgG1-153) VH and VL, V domains shown, part only) VH: EVQLQQSGPELVKPGASVKMSCKASGYTFTSYVMHWVRQTPGQGLEWIGYITPYNDGTKHNEKFKGKATLTSDKSSSTAYMELSSLTSEDSAVYYCVGGDNYYYAMDYWGQGTSVTVSAA VL: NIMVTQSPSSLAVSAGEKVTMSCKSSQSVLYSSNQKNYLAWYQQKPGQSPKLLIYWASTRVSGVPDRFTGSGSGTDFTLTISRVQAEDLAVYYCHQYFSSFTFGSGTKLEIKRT; 0.432

Attention now shifts to the item below.
# binder bsHER2xCD63-Duo3 with CD63 variant Y46 (bispecific antibody, part only; not given: HER2 arm (IgG1-153) VH and VL, V domains shown, part only) VH: EVQLQQSGPELVKPGASVKMSCKASGHTFTSYVMHWVRQTPGQGLEWIGYITPYNDGTKYNEKFKGKATLTSDKSSSTAYMELSSLTSEDSAVYYCVGGDNYYYAMDYWGQGTSVTVSAA VL: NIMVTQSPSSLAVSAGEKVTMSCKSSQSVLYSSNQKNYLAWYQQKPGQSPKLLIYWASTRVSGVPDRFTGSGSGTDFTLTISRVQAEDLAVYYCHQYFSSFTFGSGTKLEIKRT ; its IC50 of cytotoxicity, Colo205 cells (CellTiter-GLO, 4 days) = 0.754
